# z-score listing for each entry below
# Method Summary: basal S. cerevisiae growth modulation, no modifier, primary screen, OD600, strain BY4716, 24 h, basal condition (AID 1173)
# Measurement Setup: OD600, 24 h, higher = more signal, called active from +8 up or from −8 down

>  <Compound>
COc1ccc([C@H]2OC[C@@H]3CC4(CC=CC4)C(=O)N32)cc1

>  <z-score>
-0.897

$$$$
>  <Compound>
O=C1c2ccccc2[C@@]2(Cc3ccccc3N(CCN3CCOCC3)C2=O)[C@H](c2ccc(CO)cc2)N1Cc1ccccc1

>  <z-score>
-0.187

$$$$
>  <Compound>
CCN(CC)c1ccc(N2CC=CC34O[C@@H]5/C=C\CCCOC(=O)C5[C@H]3C(=O)N(CCO)[C@@H]4C2=O)cc1 (some centres undefined)

>  <z-score>
0.245

$$$$
>  <Compound>
CN1C(=O)[C@]2(Cc3ccccc3)N=C(c3ccc(OCCCO)cc3)O[C@@H]2c2ccccc21

>  <z-score>
-1.79

$$$$
